Known IC50 of a selection of compounds
target: Mitogen-activated protein kinase 1 (Rattus norvegicus); assay: Inhibition of rat recombinant Erk2
Sequence (P63086 whole entry): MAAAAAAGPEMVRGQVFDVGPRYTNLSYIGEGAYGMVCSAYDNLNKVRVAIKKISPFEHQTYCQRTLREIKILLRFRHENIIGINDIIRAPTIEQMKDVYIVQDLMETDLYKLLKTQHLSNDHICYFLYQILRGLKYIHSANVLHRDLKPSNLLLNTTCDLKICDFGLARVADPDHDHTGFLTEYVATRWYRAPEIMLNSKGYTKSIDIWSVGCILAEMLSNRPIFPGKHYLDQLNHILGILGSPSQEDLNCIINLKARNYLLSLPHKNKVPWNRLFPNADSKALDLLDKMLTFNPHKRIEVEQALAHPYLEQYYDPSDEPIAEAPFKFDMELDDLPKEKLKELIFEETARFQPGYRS

Before answering, review these 2 worked examples.
• Cn1cc(-c2nc(N)ncc2-c2ccc(C(=O)O)cc2)c2ccccc21 = > 10 µM
• Cn1cc(-c2nc(N)ncc2-c2cccc(N)c2)c2ccccc21 = > 10 µM

Moving on to the next compound.
Ask: // returns reported IC50 for input `COc1cccc(-c2cnc(N)nc2-c2c[nH]c3ccccc23)c1`
Reply: 3.1 µM

* * *

biological target: Cyclin-dependent kinase 5/CDK5 activator 1 (Homo sapiens); assay: Inhibition of human recombinant CDK5/p25; type: protein-complex assay
Sequence (Q00535 whole entry): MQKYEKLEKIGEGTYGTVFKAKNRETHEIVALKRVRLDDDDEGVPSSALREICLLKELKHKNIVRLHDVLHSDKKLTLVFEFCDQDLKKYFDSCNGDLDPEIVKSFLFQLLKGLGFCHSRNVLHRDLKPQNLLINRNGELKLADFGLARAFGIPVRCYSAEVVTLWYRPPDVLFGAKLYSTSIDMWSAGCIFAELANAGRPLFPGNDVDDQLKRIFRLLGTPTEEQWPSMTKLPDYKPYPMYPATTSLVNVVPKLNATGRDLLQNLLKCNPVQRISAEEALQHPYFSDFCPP
Sequence (Q15078 whole entry, further chain): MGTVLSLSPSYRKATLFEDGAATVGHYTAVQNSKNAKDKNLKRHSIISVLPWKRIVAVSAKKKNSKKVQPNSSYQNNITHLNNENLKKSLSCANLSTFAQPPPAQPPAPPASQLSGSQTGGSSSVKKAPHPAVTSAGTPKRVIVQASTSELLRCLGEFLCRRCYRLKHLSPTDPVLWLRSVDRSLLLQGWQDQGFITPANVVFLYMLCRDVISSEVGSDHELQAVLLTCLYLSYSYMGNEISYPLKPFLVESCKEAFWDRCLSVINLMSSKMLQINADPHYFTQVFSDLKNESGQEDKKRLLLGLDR
value-type: IC50

Before answering, review these 5 worked examples.
* Cn1cc(-c2nc(N)ncc2-c2ccc(-c3ccccc3)cc2)c2ccccc21 | > 10 µM
* Cn1cc(-c2nc(N)ncc2-c2ccc(C(=O)O)cc2)c2ccccc21 | > 10 µM
* Cn1cc(-c2nc(N)ncc2-c2ccc(C(N)=O)cc2)c2ccccc21 | > 10 µM
* Nc1ncc(-c2ccc(OC(F)(F)F)cc2)c(-c2c[nH]c3ccccc23)n1 | > 10 µM
* COc1cccc(-c2cnc(N)nc2-c2cn(C)c3ccccc23)c1 | > 10 µM

Ask: // returns reported IC50 for input `Cn1cc(-c2nc(N)ncc2-c2cccc(N)c2)c2ccccc21`
Reply: > 10 µM

Ask: // returns reported IC50 for input `COc1cccc(-c2cnc(N)nc2-c2c[nH]c3ccccc23)c1`
Reply: > 10 µM

Ask: // returns reported IC50 for input `NC(=O)c1ccc(-c2cnc(N)nc2-c2c[nH]c3ccccc23)cc1`
Reply: > 10 µM

Ask: // returns reported IC50 for input `Cn1cc(-c2nc(N)ncc2-c2ccncc2)c2ccccc21`
Reply: 5.3 µM

Ask: // returns reported IC50 for input `CC(=O)c1ccc(-c2cnc(N)nc2-c2cn(C)c3ccccc23)cc1`
Reply: > 10 µM

Ask: // returns reported IC50 for input `Nc1ncc(-c2ccc(C(F)(F)F)cc2)c(-c2c[nH]c3ccccc23)n1`
Reply: 11 µM
